# Test system: HS27 fibroblasts
# PROTOCOL_TEXT: Inhibition of proliferation of HS27 fibroblasts (selectivity, MTT reduction assay)
# Assay type: cell-based
# EXPERIMENTAL_CONTEXT: Homo sapiens
MEASURED_QUANTITY: GI50 (µM)
Value expressed in µM; do not type the unit.

Nc1cccc2c(Oc3cccc(NC(=O)Nc4ccc(Cl)c(C(F)(F)F)c4)c3)ccnc12 :: 10.4
CNC(=O)c1cc(Oc2ccc(NC(=O)Nc3ccc(Cl)c(C(F)(F)F)c3)cc2)ccn1 [Sorafenib, reference compound] :: 7.85
Nc1cccc2c(Oc3ccc(NC(=O)Nc4ccc(Cl)c(C(F)(F)F)c4)cc3)ccnc12 :: 6.71
CC(=O)Nc1cccc2c(Oc3ccc(NC(=O)c4ccc(Cl)c(C(F)(F)F)c4)cc3)ccnc12 :: 5.47

Then there is this compound:
Inquiry: Provide GI50, recorded with HS27 fibroblasts, of Nc1cccc2c(Oc3ccc(NC(=O)c4ccc(Cl)c(C(F)(F)F)c4)cc3)ccnc12
Reply text: 7.63
